- TEST: PS biodistribution after topical alternative sodium alginate-based in-situ gel
- Assay type: in vivo, New Zealand white rabbits
- CONDITION: New Zealand white, rabbit, cornea, 3 % PS in formulation, 1 h, read-out: PS in Cornea
PROPERTY_NAME: concentration at 1 h (µM)
Quick reminder: number only, in µM, skip the unit.

Check the records and state concentration at 1 h for CCOP(=O)(OCC)OCCCCOC(=O)CC1=C(C)/C(=C/c2ccc([S+](C)[O-])cc2)c2ccc(F)cc21 (stereo not shown) [PS, phosphosulindac] 17.8

====

- TEST: Biodistribution of PS nanoparticles after intravitreal injection
- Assay type: in vivo, New Zealand white rabbits
- CONDITION: New Zealand white, rabbit, cornea, other: intravitreal, 0.2% PS Nanoparticle Soln., 1 h, read-out: PS in Cornea
PROPERTY_NAME: concentration at 1 h (µM)
Quick reminder: number only, in µM, skip the unit.

Check the records and state concentration at 1 h for CCOP(=O)(OCC)OCCCCOC(=O)CC1=C(C)/C(=C/c2ccc([S+](C)[O-])cc2)c2ccc(F)cc21 (stereo not shown) 22.4

====

- TEST: PS levels in ocular tissues after topical gellan gum-based in-situ gel
- Assay type: in vivo, New Zealand white rabbits
- CONDITION: New Zealand white, rabbit, conjunctiva, gellan gum 0.5% in-situ gel, 2.4~3% PS, eye drops, read-out: PS in Conjunctiva
PROPERTY_NAME: concentration at 2 h (µM)
Quick reminder: number only, in µM, skip the unit.

Check the records and state concentration at 2 h for CCOP(=O)(OCC)OCCCCOC(=O)CC1=C(C)/C(=C/c2ccc([S+](C)[O-])cc2)c2ccc(F)cc21 (stereo not shown) [PS, phosphosulindac] 24.1

====

- TEST: PS levels in ocular tissues (HPLC) after topical 3.5% PS Vitamin E TPGS solution
- Type: in vivo, New Zealand white rabbits
- CONDITION: New Zealand white, rabbit, choroid, 3.5 % PS solution (eye drops), 3 h, read-out: PS in Choroid
PROPERTY_NAME: concentration at 3 h

Check the records and state concentration at 3 h for CCOP(=O)(OCC)OCCCCOC(=O)CC1=C(C)/C(=C/c2ccc([S+](C)[O-])cc2)c2ccc(F)cc21 (stereo not shown) 200 nM

====

- TEST: Ocular PK study of PS nanoparticles (mPEG-PLA), topical eye drops
- Format: in vivo, New Zealand white rabbits
- CONDITION: PS and its metabolites
PROPERTY_NAME: Cmax, conjunctiva
Entry format: amount then unit.

Check the records and state Cmax, conjunctiva for CC1=C(CC(=O)O)c2cc(F)ccc2/C1=C\c1ccc([S+](C)[O-])cc1 (stereo not shown) [sulindac, reference compound] 3.8 µM

Check the records and state Cmax, conjunctiva for CSc1ccc(/C=C2/C(C)=C(CC(=O)O)c3cc(F)ccc32)cc1 [sulindac sulfide] 0 µM

Check the records and state Cmax, conjunctiva for CC1=C(CC(=O)O)c2cc(F)ccc2/C1=C\c1ccc(S(C)(=O)=O)cc1 1.6 µM

Check the records and state Cmax, conjunctiva for CCOP(=O)(OCC)OCCCCOC(=O)CC1=C(C)/C(=C/c2ccc([S+](C)[O-])cc2)c2ccc(F)cc21 (stereo not shown) 26.7 µM

====

- TEST: PS biodistribution after topical alternative gellan gum-based in-situ gel
- Assay type: in vivo, New Zealand white rabbits
- CONDITION: New Zealand white, rabbit, conjunctiva, 8 h, alternative gellan gum 0.4% gel, read-out: PS in Conjunctiva
PROPERTY_NAME: concentration at 8 h (nM)
Quick reminder: number only, in nM, skip the unit.

Check the records and state concentration at 8 h for CCOP(=O)(OCC)OCCCCOC(=O)CC1=C(C)/C(=C/c2ccc([S+](C)[O-])cc2)c2ccc(F)cc21 (stereo not shown) [PS, phosphosulindac] 700

====

- TEST: PS levels in ocular tissues (HPLC) after topical 3.5% PS Vitamin E TPGS solution
- Type: in vivo, New Zealand white rabbits
- CONDITION: New Zealand white, rabbit, conjunctiva, 3.5 % PS solution (eye drops), 1 h, read-out: PS in Conjunctiva
- Description: Composition: 3.5% PS; 16% Vitamin E TPGS (d-α-tocopheryl polyethylene glycol 1000 succinate); 3.18% mannitol; 1.2% boric acid; 0.005% polyquaternium-1 (Polyquad). Alternatively, vitamin E TPGS may be replaced by other solubilizing agents. Polyquad is added as a preservative. […] Results: The above PS formulation was administered topically as eye drops to the eyes of New Zealand white rabbits. The levels of PS in ocular tissues 1 h and 3 h later were determined by HPLC.
PROPERTY_NAME: concentration at 1 h (µM)
Quick reminder: number only, in µM, skip the unit.

Check the records and state concentration at 1 h for CCOP(=O)(OCC)OCCCCOC(=O)CC1=C(C)/C(=C/c2ccc([S+](C)[O-])cc2)c2ccc(F)cc21 (stereo not shown) 9.3

====

- TEST: PS biodistribution after topical alternative gellan gum-based in-situ gel
- Format: in vivo, New Zealand white rabbits
- CONDITION: New Zealand white, rabbit, cornea, 5 h, alternative gellan gum 0.4% gel, read-out: PS in Cornea
PROPERTY_NAME: concentration at 5 h (nM)
Quick reminder: number only, in nM, skip the unit.

Check the records and state concentration at 5 h for CCOP(=O)(OCC)OCCCCOC(=O)CC1=C(C)/C(=C/c2ccc([S+](C)[O-])cc2)c2ccc(F)cc21 (stereo not shown) 1100

====

- TEST: PS biodistribution after topical alternative sodium alginate-based in-situ gel
- Assay type: in vivo, New Zealand white rabbits
- CONDITION: New Zealand white, rabbit, conjunctiva, 3 % PS in formulation, 1 h, read-out: PS in Conjunctiva
PROPERTY_NAME: concentration at 1 h (µM)
Quick reminder: number only, in µM, skip the unit.

Check the records and state concentration at 1 h for CCOP(=O)(OCC)OCCCCOC(=O)CC1=C(C)/C(=C/c2ccc([S+](C)[O-])cc2)c2ccc(F)cc21 (stereo not shown) 4.9

====

- TEST: Biodistribution of PS nanoparticles after intravitreal injection
- Type: in vivo, New Zealand white rabbits
- CONDITION: New Zealand white, rabbit, retina, other: intravitreal, 2% PS Nanoparticle Soln., 1 h, read-out: PS in Retina
PROPERTY_NAME: concentration at 1 h (µM)
Quick reminder: number only, in µM, skip the unit.

Check the records and state concentration at 1 h for CCOP(=O)(OCC)OCCCCOC(=O)CC1=C(C)/C(=C/c2ccc([S+](C)[O-])cc2)c2ccc(F)cc21 (stereo not shown) 220

====

Provide the recorded Cmax, cornea for the entries that follow.
- TEST: Rabbit ocular PK study of PS emulsion (2% PS)
- Format: in vivo, New Zealand rabbits
- CONDITION: 2% PS emulsion, three 25 μL eye drops; PS and its metabolites
Quick reminder: number only, in μm, skip the unit.

Check the records and state Cmax, cornea for CSc1ccc(/C=C2/C(C)=C(CC(=O)O)c3cc(F)ccc32)cc1 [sulindac sulfide] 0.0

Check the records and state Cmax, cornea for CCOP(=O)(OCC)OCCCCOC(=O)CC1=C(C)/C(=C/c2ccc([S+](C)[O-])cc2)c2ccc(F)cc21 (stereo not shown) 85.4

Check the records and state Cmax, cornea for CC1=C(CC(=O)O)c2cc(F)ccc2/C1=C\c1ccc([S+](C)[O-])cc1 (stereo not shown) [sulindac, reference compound] 8.7

Check the records and state Cmax, cornea for CC1=C(CC(=O)O)c2cc(F)ccc2/C1=C\c1ccc(S(C)(=O)=O)cc1 4.0

====

- TEST: Ocular PK study of PS nanoparticles (mPEG-PLA), topical eye drops
- Type: in vivo, New Zealand white rabbits
- Set-up: concentration or dose not given beside the values
- CONDITION: New Zealand white, rabbit, conjunctiva, topical or ocular, read-out: AUC0-16 h, Conjunctiva
PROPERTY_NAME: AUC(0-t) (µM·h)
Quick reminder: number only, in µM·h, skip the unit.

Check the records and state AUC(0-t) for CCOP(=O)(OCC)OCCCCOC(=O)CC1=C(C)/C(=C/c2ccc([S+](C)[O-])cc2)c2ccc(F)cc21 (stereo not shown) 61.7

====

- TEST: Corneal levels of a PS 0.2% solution formulation after single topical application
- Type: in vivo
- CONDITION: cornea, topical or ocular, 0.2 % PS solution (single application, volume not stated), mean ± SEM, read-out: MRT0-inf—obs, Cornea
PROPERTY_NAME: MRT inf (h)
Quick reminder: number only, in h, skip the unit.

Check the records and state MRT inf for CCOP(=O)(OCC)OCCCCOC(=O)CC1=C(C)/C(=C/c2ccc([S+](C)[O-])cc2)c2ccc(F)cc21 (stereo not shown) 1

====

- TEST: PS levels in ocular tissues (HPLC) after topical 3.5% PS Vitamin E TPGS solution
- Assay type: in vivo, New Zealand white rabbits
- CONDITION: New Zealand white, rabbit, aqueous humor, 3.5 % PS solution (eye drops), 3 h, read-out: PS in Aqueous humor
PROPERTY_NAME: concentration at 3 h (nM)
Quick reminder: number only, in nM, skip the unit.

Check the records and state concentration at 3 h for CCOP(=O)(OCC)OCCCCOC(=O)CC1=C(C)/C(=C/c2ccc([S+](C)[O-])cc2)c2ccc(F)cc21 (stereo not shown) 100
